Molecular target: KCNQ2/3 channels (Homo sapiens, UniProt O43525+O43526)
Construct: expressed in transfected cells; host or cells: CHO-K1
Experiment: Fluorescence assay using a voltage-sensitive dye (fluorimetry)
Format: cell-based
Conditions: CHO-K1 cells expressing KCNQ2/3; agonistic activity
Experimental: Pharmacological Experiments Fluorescence Assay Using a Voltage-Sensitive Dye […] The fluorescence measurements are carried out with a BMG Labtech FLUOstar™, BMG Labtech NOVOstar™ or BMG Labtech POLARstar™ instrument (525 nm excitation, 560 nm emission, bottom-read mode). […] The fluorescence intensity of the dye is then measured for 5 min and the fluorescence value F1 of each well is thus determined at a given, constant time. […]
pEC50: −log10 of the molar value.
readout type: pEC50

Examples with answers:
compound: O=C(Nc1cccnc1SCCS(=O)(=O)c1cccc(C(F)(F)F)c1)c1cccc(O)c1
pEC50: 6.58
//
compound: O=C(Nc1cccnc1SCCS(=O)(=O)c1ccccc1)c1ccc(F)c(F)c1
pEC50: 6.33
//
compound: O=C(CC1CCCCC1)Nc1cccnc1SCCSc1cccc(C(F)(F)F)c1
pEC50: 6.51
//
compound: O=C(Nc1cccnc1SCCOc1ccc(F)cc1)c1ccc(F)c(F)c1
pEC50: 6.70
//
compound: O=C(CC1CCCCC1)Nc1cccnc1SCCS(=O)(=O)c1ccccc1
pEC50: 7.02

1. O=C(CC1CCCCC1)Nc1cccnc1SCCSc1ccccc1
2. O=C(Cc1cc2ccccc2s1)Nc1cccnc1SCCS(=O)(=O)c1cccc(C(F)(F)F)c1
3. O=C(CC1CCCCCC1)Nc1cccnc1SCCS(=O)(=O)c1ccc(F)cc1
q: Place the items in sequence of falling pEC50. Order the labels as requested and give them as your answer.
a: 3, 1, 2
